Cited source for all entries: patent US9347937B2

# System: blood basophils from ragweed allergic subjects
# methodDescription: Histamine release assay (Immunotech Histamine Release Immunoassay kit)
# recordedConditions: 10 μg/mL
No end group written: not given here.
measurementKind: Mean histamine release of 43 or 20 subjects as a % of positive control at 10 μg/mL

>>> result("SAGMIPAEPGEA [RGW04A]")
"0%"
>>> result("KGEAAIKLTSSAGVLSKK [RGW07D]")
"3%"
>>> result("GEAAIKLTSSAGVLS [RGW07]")
"1%"
>>> result("RDLLENGAIFLPSG [RGW03B]")
"1%"
>>> result("GSSQIWIDHSSLSKS [RGW02]")
"1%"
>>> result("KEGTLRFAAAQNRP [RGW05]")
"0%"
>>> result("AINNDKTIDGRGAKVE [RGW06A]")
"1%"
>>> result("GMIKSNDGPPI [RGW01]")
"1%"

* * *

# methodDescription: In vitro solubility testing in an acidic environment
# Format: physicochemical
# recordedConditions: pH 2.97; Table 6, RGW07 and variants; acidic environment
No end group written: not given here.
measurementKind: solubility

>>> result("GEAAIKLTSSAGVLS [RGW07]")
"700 µg/mL"
>>> result("KGEAAIKLTSSAGVLSK [RGW07C]")
"1550 µg/mL"
>>> result("KGEAAIKLTSSAGVLSKK [RGW07D]")
"4260 µg/mL"

* * *

Overview of recorded solubility for various sequences
# methodDescription: In vitro solubility testing in an acidic environment
# Type: physicochemical
# recordedConditions: pH 2.97 0.1 mM HCl, 0.5% (w/v) 1-thioglycerol (ca. 46 mM), 230 mM trehalose
No end group written: not given here.
measurementKind: solubility

>>> result("RDLLENGAIFLPSG [RGW03B]")
"3.85 mg/mL"
>>> result("KDLLENGAIFVTSG [RGW03]")
"< 0.62 mg/mL"
